System: NCI-H522 lung
Experiment: NCI-60 one-dose screen, 48 h (100 = growth as untreated, 0 = no growth, -100 = all killed)
Conditions: 10 µM unless noted
About 83,000 compounds went through this panel and 20% of them were active in at least one assay; those are over-represented in the sample as a whole.
experimental.endpoint: growth (%)

INSERT INTO measurements (compound, unit_of_measurement, observed_value) VALUES
  ('COc1ccc(-c2cc(-c3cccnc3)nc3sc4c(=O)n(-c5ccc(C)cc5)nnc4c23)cc1OC', '%', 101),
  ('CN1Cc2c(cc(CN3CCCCC3)n2C)C(c2ccc(Br)cc2)C1 (centres undefined)', '%', 90.5),
  ('O=C(CCN1CCOCC1)Nc1ccc(Cn2nnc3c2C(=O)c2nnn(Cc4ccc(NC(=O)CCN5CCOCC5)cc4)c2C3=O)cc1', '%', -28.9),
  ('COc1cc(NC(N)=NCC(C)(C)COc2ccc(C(F)(F)F)cc2)cnc1C#N', '%', 57.6),
  ('CC(C)Oc1nc2c(c(=O)n(C)c(=O)n2C)n1C', '%', 80.9),
  ('O=C(CN1CCN(c2cc3c(cc2F)c(=O)c(C(=O)O)cn3C2CC2)CC1)Nc1cc(=O)[nH]c(=O)[nH]1', '%', 92.8),
  ('COc1cc(C2C(C(=O)c3cccs3)=C(O)C(=O)N2CCN2CCOCC2)cc(OC)c1OC (centres undefined)', '%', 92.2),
  ('COc1ccc(S(=O)(=O)NCCNc2nccc(-c3c(-c4cccc([N+](=O)[O-])c4)nc4sccn34)n2)cc1', '%', 86),
  ('CC1(C)OCC2OC3(C(=O)O)OC(C)(C)OC3C2O1 (centres undefined)', '%', 84.6),
  ('O=C1C=CC(Nc2ccccc2[N+](=O)[O-])C1Nc1ccccc1[N+](=O)[O-] (centres undefined)', '%', -90.1),
  ('COC(=O)[C@@H]1CC[C@]2(C)[C@H](CC[C@@H]3O[C@@]32C)[C@@]1(C)CC(=O)c1ccoc1', '%', 80.4),
  ('CN1CCN(Cc2ccc(NC(=O)c3[nH]ncc3Nc3ncnc4[nH]ccc34)cc2)CC1', '%', 1.39),
  ('CC1(C)CC(C(=O)OCCCCCCCCCCC[P+](c2ccccc2)(c2ccccc2)c2ccccc2)C(C)(C)N1O (centres undefined)', '%', -29.4),
  ('CC1CN(C(C)C)C(=S)N(c2ccccc2)C1=O (centres undefined)', '%', 87),
  ('CCN(CC)CCCCNc1ccc(NCCCCN(CC)CC)c2c1C(=O)c1ccccc1C2=O', '%', 96.6),
  ('O=C(/C=C/c1ccc(Cl)cc1)/C=C/c1cc2ccccc2[nH]c1=O', '%', 46.4),
  ('CN1CCN(Cc2ccc(NC(=O)c3[nH]ncc3Nc3ccnc4ccsc34)cc2)CC1', '%', 47.2),
  ('COc1cccc(-n2cc(-c3nc(Nc4cc(C)[nH]n4)c4ccccc4n3)nn2)c1', '%', 9.97),
  ('C=C1C(=O)O[C@H]2[C@H]1CC/C(Cn1cc(Cn3ccc4ccccc43)nn1)=C\CC[C@@]1(C)O[C@@H]21', '%', -60.6);

Reference source for all entries: PubChem BioAssay (NCI)
